SYSTEM_NAME: HIV-1 RT reference (HIV-1 subtype B (clone BH10), UniProt P03366;P03366 P03366:600-1159,P03366:600-1039)
TEST_METHOD_NOTES: inhibition; RNA-dependent DNA polymerisation, preincubated 30 min, 33 C
CONDITION_DESCRIPTION: two stem-loops (D and anticodon)
MEASURED_QUANTITY: IC50 (nM)

binder="GCUCAGUCGGUAGAGCAUCAGACUUUUAAUCUGAG (ssRNA) [compound 199]" measured_quantity=IC50 experimental_value=6.6
